- tgt: human PPARδ receptor (Homo sapiens, UniProt Q03181)
- Construct: expressed in transfected cells
- Sequence (Q03181 211-439 limits assumed): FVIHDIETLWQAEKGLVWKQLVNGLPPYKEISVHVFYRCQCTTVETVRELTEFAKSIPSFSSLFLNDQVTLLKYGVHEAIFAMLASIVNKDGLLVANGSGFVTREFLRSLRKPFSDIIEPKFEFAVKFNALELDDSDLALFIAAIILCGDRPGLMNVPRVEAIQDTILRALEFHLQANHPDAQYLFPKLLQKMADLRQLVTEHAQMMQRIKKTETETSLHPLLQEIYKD
- method: Cellular transactivation assay (GAL4-PPARδ chimera, luciferase reporter)
- Format: cell-based
- assay_context: GAL4-PPARδ chimera stably expressed in CHO cells, 24 hours stimulation
- Method: A cellular assay is used to identify activators of the peroxisome proliferator-activated receptor delta (PPAR-delta). […] CHO (chinese hamster ovary) cells are sown in CHO-A-SFM medium (GIBCO), supplemented by 2.5% foetal calf serum and 1% penicillin/streptomycin (GIBCO), at a cell density of 2×10^3 cells per well in a 384-well plate (Greiner). […] After a stimulation period of 24 hours, the luciferase activity is measured using a video camera. […]

{"compound": "CN(CC(=O)O)c1ccc(S(=O)(=O)N2CC(C)(C)c3cc(-c4ccc(C(F)(F)F)cc4)ccc32)cc1 [Working Example 1]", "EC50 (nM)": 8.5}
